Assayed system: H_N60 (SEQ ID NO: 3), microbial HemG protoporphyrinogen oxidase
Protocol summary: PPO enzyme assay (bacterial extract)
Cond: read-out: S-3100 IC50; 3 μM protogen; pH 7.4, 37° C.

| Compound | IC50 |
| --- | --- |
| CCOC(=O)COc1ncccc1Oc1cc(-n2c(=O)cc(C(F)(F)F)n(C)c2=O)c(F)cc1Cl [S-3100] | > 100 µM |
